system: Aspergillus fumigatus; experiment: In vitro antifungal activity against Aspergillus fumigatus; format: functional; conditions: Aspergillus fumigatus; read-out: MIC
# MIC listing for each entry below

{"Molecule": "CC(O)(c1ccc(F)cc1)C(O)(Cn1cncn1)c1ccccc1Cl (stereo in doubt; 182)", "MIC": "12.5 µg/mL"}
{"Molecule": "O=C(c1ccc(Cl)cc1)C(O)(Cn1cncn1)c1ccc(Cl)cc1Cl (configuration not stated)", "MIC": "> 100 µg/mL"}
{"Molecule": "O=S1O[C@H](c2ccc(Cl)cc2Cl)[C@@](Cn2cncn2)(c2ccc(Cl)cc2)O1 (some centres not stated)", "MIC": "> 100 µg/mL"}
{"Molecule": "OC(c1ccc(Cl)cc1)C(O)(Cn1cncn1)c1ccc(Cl)cc1 (stereo in doubt; 89)", "MIC": "> 100 µg/mL"}
{"Molecule": "O=C(c1ccccc1)C(O)(Cn1cncn1)c1ccccc1Cl (configuration not stated)", "MIC": "> 100 µg/mL"}
{"Molecule": "O=C(c1ccc(Cl)cc1Cl)C(O)(Cn1cncn1)c1ccc(Cl)cc1 (configuration not stated)", "MIC": "> 100 µg/mL"}
{"Molecule": "CC(C)C(O)C(O)(Cn1cncn1)c1ccc(Cl)cc1Cl (configuration not stated)", "MIC": "50 µg/mL"}
{"Molecule": "O=C(C1CCCC1)C(O)(Cn1cncn1)c1ccc(Cl)cc1Cl (configuration not stated)", "MIC": "> 100 µg/mL"}
{"Molecule": "CCCCC(O)(Cn1cncn1)C(=O)c1ccc(Cl)cc1Cl (configuration not stated)", "MIC": "50 µg/mL"}
{"Molecule": "O=C(c1ccc(F)cc1)C(O)(Cn1cncn1)c1ccccc1Cl (configuration not stated)", "MIC": "> 100 µg/mL"}
{"Molecule": "CC(C)(C)C(=O)C(O)(Cn1cncn1)c1ccc(Cl)cc1Cl (configuration not stated)", "MIC": "> 100 µg/mL"}
{"Molecule": "CC(O)(c1ccc(Cl)cc1)C(O)(Cn1cncn1)c1ccc(Cl)cc1 (stereo in doubt; 194)", "MIC": "> 100 µg/mL"}
{"Molecule": "O=C(c1ccccc1Cl)C(O)(Cn1cncn1)c1ccccc1 (configuration not stated)", "MIC": "> 100 µg/mL"}
{"Molecule": "O=C(c1ccccc1Cl)C(O)(Cn1cncn1)c1ccc(F)cc1 (configuration not stated)", "MIC": "> 100 µg/mL"}
{"Molecule": "Cc1ccccc1C(=O)C(O)(Cn1cncn1)c1ccccc1C (configuration not stated)", "MIC": "> 100 µg/mL"}
{"Molecule": "CC(C)[C@H]1OC(=O)O[C@@]1(Cn1cncn1)c1ccc(Cl)cc1", "MIC": "> 100 µg/mL"}
{"Molecule": "O=S1O[C@H](c2ccc(F)cc2)[C@](Cn2cncn2)(c2ccc(Cl)cc2Cl)O1 (some centres not stated)", "MIC": "> 100 µg/mL"}
{"Molecule": "COc1ccccc1C(O)C(O)(Cn1cncn1)c1ccccc1OC (configuration not stated)", "MIC": "> 100 µg/mL"}
{"Molecule": "OC(c1ccc(Cl)cc1Cl)C(O)(Cn1ccnc1)c1ccc(Cl)cc1Cl (configuration not stated)", "MIC": "100 µg/mL"}
{"Molecule": "Clc1ccc([C@H]2OCO[C@]2(Cn2cncn2)c2ccccc2)c(Cl)c1", "MIC": "12.5 µg/mL"}
{"Molecule": "CC(O)(c1ccc(F)cc1)C(O)(Cn1cncn1)c1ccc(Cl)cc1 (stereo in doubt; 163)", "MIC": "> 100 µg/mL"}
{"Molecule": "O=C(c1cccc(Cl)c1)C(O)(Cn1cncn1)c1cccc(Cl)c1 (configuration not stated)", "MIC": "> 100 µg/mL"}
{"Molecule": "Fc1ccc([C@H]2OCO[C@]2(Cn2cncn2)c2ccc(Cl)cc2Cl)cc1", "MIC": "> 100 µg/mL"}
{"Molecule": "CCCCC(O)(c1ccccc1)C(O)(Cn1cncn1)c1ccc(Cl)cc1Cl (configuration not stated)", "MIC": "> 100 µg/mL"}
{"Molecule": "CC(C)C(=O)C(O)(Cn1cncn1)c1ccc(Cl)cc1Cl (configuration not stated)", "MIC": "100 µg/mL"}
{"Molecule": "O=C(c1ccccc1Cl)C(O)(Cn1cncn1)c1ccccc1Cl (configuration not stated)", "MIC": "50 µg/mL"}
{"Molecule": "OC(c1ccc(F)cc1)C(O)(Cn1cncn1)c1ccc(F)cc1 (configuration not stated)", "MIC": "> 100 µg/mL"}

* * *

tested on: Candida albicans; experiment: In vitro antifungal activity against Candida albicans; assay type: functional; settings: Candida albicans; read-out: MIC
The following molecules are listed with their measured MIC values.

{"Molecule": "O=C(c1ccc(Cl)cc1Cl)[C@](O)(Cn1cncn1)c1ccc(Cl)cc1Cl", "System tested": "Candida albicans", "Unit spec": "µg/mL", "Comparison symbol": ">", "MIC": 100}
{"Molecule": "O=C(c1ccc(F)cc1)C(O)(Cn1cnnc1)c1ccc(Cl)cc1Cl (stereo not given)", "System tested": "Candida albicans", "Unit spec": "µg/mL", "Comparison symbol": ">", "MIC": 100}
{"Molecule": "O=C1O[C@H](c2ccc(Cl)cc2Cl)[C@@](Cn2cncn2)(c2ccc(Cl)cc2)O1", "System tested": "Candida albicans", "Unit spec": "µg/mL", "Comparison symbol": "=", "MIC": 50}
{"Molecule": "OC(c1ccccc1Cl)C(O)(Cn1cncn1)c1ccccc1Cl (stereo not given)", "System tested": "Candida albicans", "Unit spec": "µg/mL", "Comparison symbol": "=", "MIC": 100}
{"Molecule": "COc1ccc(C(=O)C(O)(Cn2cnnc2)c2ccc(OC)cc2)cc1 (stereo not given)", "System tested": "Candida albicans", "Unit spec": "µg/mL", "Comparison symbol": ">", "MIC": 100}
